This section lists pKi readings for UniProt O43570.
Sequence (O43570 25-354): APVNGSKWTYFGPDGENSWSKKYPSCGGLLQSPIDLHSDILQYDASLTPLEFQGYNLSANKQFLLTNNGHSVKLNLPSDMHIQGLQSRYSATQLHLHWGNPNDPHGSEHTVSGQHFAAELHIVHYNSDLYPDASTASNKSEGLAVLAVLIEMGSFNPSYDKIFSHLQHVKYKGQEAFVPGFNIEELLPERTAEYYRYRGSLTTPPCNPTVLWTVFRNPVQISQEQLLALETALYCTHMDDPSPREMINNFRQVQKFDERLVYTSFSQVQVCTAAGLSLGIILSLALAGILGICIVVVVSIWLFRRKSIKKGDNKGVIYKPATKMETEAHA
For clarity, pKi is expressed as the negative log10 of concentration in mol/L.

Examples with answers:
O=C(COc1ccc2oc(=O)ccc2c1)NNC(=S)Nc1ccc(Cl)cc1 [Compound 16a] ... 6.22
O=C(COc1ccc2ccc(=O)oc2c1)NNC(=S)Nc1ccc(I)cc1 [Compound 18b] ... 8.12
N#Cc1ccc(NC(=S)NNC(=O)COc2ccc3ccc(=O)oc3c2)cc1 [Compound 23b] ... 6.33
O=C(COc1ccc2oc(=O)ccc2c1)NNC(=S)Nc1ccc(C(F)(F)F)cc1 [Compound 20a] ... 6.51

API: the following record is the query input.
stdin: For the compound shown here, O=C(COc1ccc2oc(=O)ccc2c1)NNC(=S)Nc1ccc(F)cc1 [Compound 17a] , give the reported pKi.
stdout: 6.31
